Reference source: patent US9133207B2

# Lookup of reported log10 IC90 keyed by entry
System: MG63 (osteosarcoma)
Test: Solid tumor cell growth inhibition, MTT, 72 h (Example 7)
Type: cell-based, human
Conditions: Homo sapiens; 72 h, MTT, MG-63
assay-metric: log10 IC90 (log10 of the value in µg/mL)

compound	quantitative-result
COc1ccc2cc1Oc1ccc(cc1)C[C@H]1c3cc(c(OC)cc3CCN1C)Oc1c(OC)c(OC)c(CNC(C)C)c3c1[C@H](C2)N(C)CC3	0.60
COCc1c2c3c(c(OC)c1OC)Oc1cc4c(cc1OC)CCN(C)[C@H]4Cc1ccc(cc1)Oc1cc(ccc1OC)C[C@@H]3N(C)CC2	1.00
COc1ccc2cc1Oc1ccc(cc1)C[C@H]1c3cc(c(OC)cc3CCN1C)Oc1c(OC)c(OC)c(CNCc3cccnc3)c3c1[C@H](C2)N(C)CC3	0.61
COc1ccc2cc1Oc1ccc(cc1)C[C@H]1c3cc(c(OC)cc3CCN1C)Oc1c(OC)c(OC)c(CN3CCC(N(C)C)CC3)c3c1[C@H](C2)N(C)CC3	-0.05
COc1ccc2cc1Oc1ccc(cc1)C[C@H]1c3cc(c(OC)cc3CCN1C)Oc1c(OC)c(OC)cc3c1[C@H](C2)N(C)CC3 [TTD, reference compound]	0.57
COc1ccc2cc1Oc1ccc(cc1)C[C@H]1c3cc(c(OC)cc3CCN1C)Oc1c(OC)c(OC)c(CNCc3ccccn3)c3c1[C@H](C2)N(C)CC3	0.64
COCCCNCc1c2c3c(c(OC)c1OC)Oc1cc4c(cc1OC)CCN(C)[C@H]4Cc1ccc(cc1)Oc1cc(ccc1OC)C[C@@H]3N(C)CC2	0.08
COc1ccc2cc1Oc1ccc(cc1)C[C@H]1c3cc(c(OC)cc3CCN1C)Oc1c(OC)c(OC)c(CSc3ccccc3)c3c1[C@H](C2)N(C)CC3	0.65
COc1ccc2cc1Oc1ccc(cc1)C[C@H]1c3cc(c(OC)cc3CCN1C)Oc1c(OC)c(OC)c(COCCOc3ccccc3)c3c1[C@H](C2)N(C)CC3	0.05
COc1ccc2cc1Oc1ccc(cc1)C[C@H]1c3cc(c(OC)cc3CCN1C)Oc1c(OC)c(OC)c(COC(=O)c3cccs3)c3c1[C@H](C2)N(C)CC3	1.02
COc1ccc2cc1Oc1ccc(cc1)C[C@H]1c3cc(c(OC)cc3CCN1C)Oc1c(OC)c(OC)c(CN3CCCC(C)C3)c3c1[C@H](C2)N(C)CC3 (some centres unmarked)	0.18
COc1ccc2cc1Oc1ccc(cc1)C[C@H]1c3cc(c(OC)cc3CCN1C)Oc1c(OC)c(OC)c(CN3CCSCC3)c3c1[C@H](C2)N(C)CC3	0.59
COc1ccc2cc1Oc1ccc(cc1)C[C@H]1c3cc(c(OC)cc3CCN1C)Oc1c(OC)c(OC)c(CNCc3cccs3)c3c1[C@H](C2)N(C)CC3	0.30
COc1ccc2cc1Oc1ccc(cc1)C[C@H]1c3cc(c(OC)cc3CCN1C)Oc1c(OC)c(OC)c(CN3CCN(C(C)C)CC3)c3c1[C@H](C2)N(C)CC3	0.11
COc1ccc2cc1Oc1ccc(cc1)C[C@H]1c3cc(c(OC)cc3CCN1C)Oc1c(OC)c(OC)c(COC(C)=O)c3c1[C@H](C2)N(C)CC3	0.88
CCOCc1c2c3c(c(OC)c1OC)Oc1cc4c(cc1OC)CCN(C)[C@H]4Cc1ccc(cc1)Oc1cc(ccc1OC)C[C@@H]3N(C)CC2	0.99
COc1ccc2cc1Oc1ccc(cc1)C[C@H]1c3cc(c(OC)cc3CCN1C)Oc1c(OC)c(OC)c(CN3CCCC(CO)C3)c3c1[C@H](C2)N(C)CC3 (some centres unmarked)	0.30
